Entries and their pIC50 values follow.
# experimental-target: human p38 kinase alpha (Homo sapiens)
# Construct: The coding region of the human p38a cDNA was obtained by PCR-amplification from RNA isolated from the human monocyte cell line THP.1
# Sequence (Q16539 whole entry): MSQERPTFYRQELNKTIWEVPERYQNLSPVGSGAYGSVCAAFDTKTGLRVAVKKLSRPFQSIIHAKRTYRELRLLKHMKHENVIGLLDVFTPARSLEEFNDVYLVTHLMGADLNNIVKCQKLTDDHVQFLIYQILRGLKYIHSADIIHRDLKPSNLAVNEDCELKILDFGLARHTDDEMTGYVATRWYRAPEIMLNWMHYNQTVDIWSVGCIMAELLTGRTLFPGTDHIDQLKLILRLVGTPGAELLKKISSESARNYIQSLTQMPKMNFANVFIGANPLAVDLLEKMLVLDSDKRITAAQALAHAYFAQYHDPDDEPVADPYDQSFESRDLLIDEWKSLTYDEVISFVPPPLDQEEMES
# protocol-description: p38 kinase in vitro assay (PHAS-I / 32P-ATP format or EGFRP / 33P-ATP format)
# test-parameters: activated human p38 kinase alpha, 50 μM unlabeled ATP; two assay formats, table does not say which
pIC50: −log10 of the molar value. Structures can show the parent of a compound that is named as a salt.
reported-metric: pIC50

1) Cc1c(Sc2ccc(F)cc2F)ccc2nnc(C(C)C)n12 : 7.00
2) Cc1cc(Br)ccc1-c1nnc2ccc(Sc3ccc(F)cc3F)cn12 [45 (step 2), hydrochloride] : 6.85
3) CNC(=O)c1ccc(C)c(-c2nnc3ccc(Sc4ccc(F)cc4F)cn23)c1 : 7.40
4) COC(=O)c1ccc(C)c(-c2nnc3ccc(Br)cn23)c1 [41 (step 2)] : 4.89
5) COC(=O)c1cccc(-c2nnc3ccc(Cc4ccc(F)cc4F)cn23)c1 : 6.85
6) CC(C)c1nnc2ccc(Sc3c(Cl)cc(Cl)cc3Cl)cn12 [Example 55, hydrochloride] : 5.08
7) O=C(CO)N1CCC(c2nnc3ccc(Sc4ccc(F)cc4F)cn23)CC1 [Example 44, hydrochloride] : 6.67
8) COC(=O)c1ccc(C)c(-c2nnc3n2CC(CCc2ccc(F)cc2F)CC3)c1 (racemic) : 6.97
